- Test system: Coriolus versicolor IFO-30340
- test details: Antibacterial and antifungal activity, paper disc method
- Assay type: cell-based
- experimental context: Trametes versicolor, IFO30340; paper disc d=8 mm dipped in 1,000 µg/ml solution; PDA medium; read-out: diameter of the growth inhibition circle, Cor.(IFO-30340)
Assignment: determine reported zone of inhibition at 1000 µg/mL for the given compounds.

Notebook: O=C(C#CI)Nc1cccc(C(F)(F)F)c1 , zone of inhibition at 1000 µg/mL read as > 41 mm

zone of inhibition at 1000 µg/mL in this record for CCCCCCCCCCNC(=O)C#CI [Example 2, N-(n-Decyl)-3-iodopropiolamide] : 21 to 40 mm

Data point: CCCCCCCCNC(=O)C#CI [Example 10, N-(n-Octyl)-3-iodopropiolamide] ; zone of inhibition at 1000 µg/mL = > 41 mm

Lab note: measured zone of inhibition at 1000 µg/mL of CCCCCCCCCNC(=O)C#CI [Example 11, N-(n-Nonyl)-3-iodopropiolamide] was > 41 mm

The compound listed as CCCCCCCNC(=O)C#CI [Example 9, N-(n-Heptyl)-3-iodopropiolamide] has a reported zone of inhibition at 1000 µg/mL of > 41 mm

// sample O=C(C#CI)Nc1cccc(Cl)c1 [Example 3, N-(3-Chlorophenyl)-3-iodopropiolamide] , its zone of inhibition at 1000 µg/mL was > 41 mm

The reported zone of inhibition at 1000 µg/mL of the compound O=C(C#CI)Nc1cccc(F)c1 [Example 17, N-(3-Fluorophenyl)-3-iodopropiolamide] was > 41 mm

So, CCCCCCNC(=O)C#CI [Example 8, N-(n-Hexyl)-3-iodopropiolamide] ? Its zone of inhibition at 1000 µg/mL was > 41 mm

// O=C(C#CI)NCCc1ccccc1 [Example 16, N-(2-Phenylethyl)-3-iodopropiolamide] : zone of inhibition at 1000 µg/mL value = > 41 mm

Documented zone of inhibition at 1000 µg/mL of CCCCN(CCCC)C(=O)C#CI [Example 18, N,N-Di(n-butyl)-3-iodopropiolamide] : > 41 mm

The value of zone of inhibition at 1000 µg/mL measured for the compound CC(C)CNC(=O)C#CI [Example 6, N-Isobutyl-3-iodopropiolamide] turned out to be 21 to 40 mm

Looking up CC1COCC(C)N1C(=O)C#CI (stereo not drawn) , I see its zone of inhibition at 1000 µg/mL listed as > 41 mm

###

Give measured zone of inhibition at 1000 µg/mL for each item. Keep answers brief.
- Test system: Aspergillus niger IFO-4407
- test details: Antibacterial and antifungal activity, paper disc method
- Assay type: cell-based
- experimental context: IFO4407, paper disc d=8 mm dipped in 1,000 µg/ml solution, SDA medium, read-out: diameter of the growth inhibition circle, Asp.(IFO-4407)
- Procedure: Antibacterial and antifungal activity tests for various bacteria and fungi were conducted. The tests were carried out by the conventional paper disc method. That is, a paper disc (d=8 mm) was dipped in aqueous or methanol solution of the compound of the present invention (concentration : 1,000 µg/ml), then dried and used. […]

Kindly note the recorded zone of inhibition at 1000 µg/mL for CCCCN(CCCC)C(=O)C#CI [Example 18, N,N-Di(n-butyl)-3-iodopropiolamide] , which is 21 to 40 mm

Reported zone of inhibition at 1000 µg/mL ( CC(C)(C)NC(=O)C#CI [Example 1, N-(tert-Butyl)-3-iodopropiolamide] ) = 21 to 40 mm

The reported zone of inhibition at 1000 µg/mL of the compound O=C(C#CI)NCCc1ccccc1 [Example 16, N-(2-Phenylethyl)-3-iodopropiolamide] was 21 to 40 mm

###

- System: Bacillus subtilis IFO-13719
- test details: Antibacterial and antifungal activity, paper disc method
- Type: cell-based
- experimental context: Bacillus subtilis, IFO13719; paper disc d=8 mm dipped in 1,000 µg/ml solution; TSA medium; read-out: diameter of the growth inhibition circle, Bac.(IFO-13719)
For each entry below, report its zone of inhibition at 1000 µg/mL value.

Form: compound = O=C(C#CI)N1CCN(c2ccccc2)CC1 [Example 21, 1-(3-Iodopropioloyl)-4-phenylpiperazine] ; zone of inhibition at 1000 µg/mL = 9 to 20 mm

Looking up O=C(C#CI)Nc1cccc(Cl)c1 [Example 3, N-(3-Chlorophenyl)-3-iodopropiolamide] , I see its zone of inhibition at 1000 µg/mL listed as 21 to 40 mm

Record summary for O=C(C#CI)Nc1ccc(Cl)cc1 [Example 24, N-(4-Chlorophenyl)-3-iodopropiolamide] : reported zone of inhibition at 1000 µg/mL = 9 to 20 mm

zone of inhibition at 1000 µg/mL for O=C(C#CI)NCCc1ccccc1 [Example 16, N-(2-Phenylethyl)-3-iodopropiolamide] is 21 to 40 mm

get_value(item= O=C(C#CI)N1CCCCC1 [Example 19, 1-(3-Iodopropioloyl)piperidine] , readout=zone of inhibition at 1000 µg/mL) returns 21 to 40 mm

// sample CC(C)CNC(=O)C#CI [Example 6, N-Isobutyl-3-iodopropiolamide] , its zone of inhibition at 1000 µg/mL was 21 to 40 mm

Value of zone of inhibition at 1000 µg/mL reported for the compound O=C(C#CI)NC1CCCCC1 [Example 22, N-Cyclohexyl-3-iodopropiolamide] is 9 to 20 mm

The reported zone of inhibition at 1000 µg/mL of the compound O=C(C#CI)Nc1cccc(C(F)(F)F)c1 [Example 26] was 9 to 20 mm

compound CCCCNC(=O)C#CI [Example 4, N-(n-Butyl)-3-iodopropiolamide] , zone of inhibition at 1000 µg/mL observed: 9 to 20 mm

Entry CCCCCNC(=O)C#CI [Example 7, N-(n-Pentyl)-3-iodopropiolamide] ; zone of inhibition at 1000 µg/mL = 9 to 20 mm

Item: CCC(C)NC(=O)C#CI (stereo not shown) [Example 5, N-(sec-Butyl)-3-iodopropiolamide] | zone of inhibition at 1000 µg/mL: 9 to 20 mm

Consider CCCCCCCCCCNC(=O)C#CI [Example 2, N-(n-Decyl)-3-iodopropiolamide] . Its measured zone of inhibition at 1000 µg/mL is 9 to 20 mm

Measured zone of inhibition at 1000 µg/mL of O=C(C#CI)Nc1cccc(F)c1 [Example 17, N-(3-Fluorophenyl)-3-iodopropiolamide] : 21 to 40 mm

Please fill in: zone of inhibition at 1000 µg/mL reported for O=C(C#CI)Nc1ccc(Cl)cc1Cl [Example 25] = 9 to 20 mm

Entry CCCCCCNC(=O)C#CI [Example 8, N-(n-Hexyl)-3-iodopropiolamide] — recorded zone of inhibition at 1000 µg/mL = 9 to 20 mm

Record CC(C)(C)NC(=O)C#CI [Example 1, N-(tert-Butyl)-3-iodopropiolamide] . Reported zone of inhibition at 1000 µg/mL: 9 to 20 mm

Memo: CC1COCC(C)N1C(=O)C#CI (stereo not shown) [Example 20] , reported zone of inhibition at 1000 µg/mL: 9 to 20 mm

Entry CCCCN(CCCC)C(=O)C#CI [Example 18, N,N-Di(n-butyl)-3-iodopropiolamide] — recorded zone of inhibition at 1000 µg/mL = 9 to 20 mm

Sample CCCCCCCNC(=O)C#CI [Example 9, N-(n-Heptyl)-3-iodopropiolamide] ; zone of inhibition at 1000 µg/mL observed: 9 to 20 mm

###

- System: Aspergillus Niger (IFO 6341), Penicillium funiculosum (IFO 6345), Rhizopus javanicus (IFO 6354), Aureobasidium pullulans (IFO 6353), Gliocladium virens (IFO …)
- test details: Fungicide activity for wood fungicide, sum of average ratings and damage value over the five fungi
- Assay type: cell-based
- experimental context: D = S₁ / S₀ × 100; untreated 100.0; lower = higher fungicide activity
Task for the reader: assign each of the following compounds its reported damage value.
Give only the figure.

# damage value (compound: CC(C)(C)NC(=O)C#CI [Example 1, N-(tert-Butyl)-3-iodopropiolamide] ) is 13.3

The compound identified as CCCCCNC(=O)C#CI [Example 7, N-(n-Pentyl)-3-iodopropiolamide] registered its damage value at 34.4

Measured damage value, CCCCCCCCCNC(=O)C#CI [Example 11, N-(n-Nonyl)-3-iodopropiolamide] : 82.2

Sure, the documented damage value for CCCCNC(=O)OCC#CI [R, I-C≡CCH₂O-CO-NH(CH₂)₃CH₃, reference compound] is 13.3

# compound CCCCCCNC(=O)C#CI [Example 8, N-(n-Hexyl)-3-iodopropiolamide] ; its damage value = 23.3

// recorded damage value for CCCCCCCCCCNC(=O)C#CI [Example 2, N-(n-Decyl)-3-iodopropiolamide] : 62.2

Looking up CCCCCCCCNC(=O)C#CI [Example 10, N-(n-Octyl)-3-iodopropiolamide] , I see its damage value listed as 54.4

Value of damage value reported for the compound CCCCNC(=O)C#CI [Example 4, N-(n-Butyl)-3-iodopropiolamide] is 6.7

Query CCCCCCCNC(=O)C#CI [Example 9, N-(n-Heptyl)-3-iodopropiolamide] yields damage value of 50.0

damage value reported for this compound CCC(C)NC(=O)C#CI (centres unmarked) [Example 5, N-(sec-Butyl)-3-iodopropiolamide] : 28.9

Record summary for CC(C)CNC(=O)C#CI [Example 6, N-Isobutyl-3-iodopropiolamide] : reported damage value = 20.2
